Hi there, I'd appreciate the recorded CC50 for every entry that follows.
system: UACC-257; test: cells; conditions: Homo sapiens, UACC-257, 48 h, read-out: LC50

Field: example entries. Status: answers known.
COc1cc(/C=C/C(=O)c2ccc(S(=O)(=O)NCCNc3nc(N(C)C)nc(N4CCOCC4)n3)cc2)cc(OC)c1OC [23d]: 43 µM
COc1cc(/C=C/C(=O)c2ccc(C)cc2)ccc1Oc1nc(Nc2ccc(F)cc2)nc(N(C)C)n1 [21b]: > 100 µM
Cc1ccc(C2CC(c3ccc(Nc4nc(NCCO)nc(Nc5ccc(Cl)cc5)n4)cc3)=Nc3c(N)nc(N)nc3N2)cc1 (stereo not shown) [33b]: 6.54 µM

Then this compound:
In plain terms, COc1cc(/C=C/C(=O)c2ccccc2)ccc1Oc1nc(Nc2ccc(F)cc2)nc(N(C)C)n1 [21a] has a documented CC50 of > 100 µM
